# TEST PROTOCOL: Highest frequency of acute liver toxicity observed during clinical trials, expressed as a percentage. [column '% AIGUE' in source]
# TEST CONDITIONS: human
Where a SMILES comes first, the peptide text is derived from it. Bridges are numbered along the chain shown (N, C = ends). [ ]: non-standard residue; d: D form.
Listing of entries alongside the reported Hepatotoxicity (acute).

{"COMPOUND": "CC(C)Nc1cccnc1N1CCN(C(=O)c2cc3cc(NS(C)(=O)=O)ccc3[nH]2)CC1", "Hepatotoxicity (acute) (%)": 0}
{"COMPOUND": "O=C1CN(/N=C/c2ccc(-c3ccc([N+](=O)[O-])cc3)o2)C(O)=N1", "Hepatotoxicity (acute) (%)": 0.6}
{"COMPOUND": "CC(C)NNC(=O)c1ccncc1", "Hepatotoxicity (acute) (%)": 1.4}
{"COMPOUND": "COc1ccc(CCN(C)CCCC(C#N)(c2cc(OC)c(OC)c(OC)c2)C(C)C)cc1OC (centres undefined)", "Hepatotoxicity (acute) (%)": 0}
{"COMPOUND": "CCOC(=O)C1=C(C)NC(C)=C(C(=O)OC)C1c1cccc([N+](=O)[O-])c1 (centres undefined)", "Hepatotoxicity (acute) (%)": 0}
{"COMPOUND": "O=C(Cn1ccnc1[N+](=O)[O-])NCc1ccccc1", "Hepatotoxicity (acute) (%)": 0}
{"COMPOUND": "CCOC(=O)/C=C(C)/C=C/C=C(C)/C=C/c1c(C)cc(OC)c(C)c1C [ETRETINATE]", "Hepatotoxicity (acute) (%)": 1.5}
{"COMPOUND": "CCN(CC)C(=O)C1(c2ccccc2)CC1CN (centres undefined)", "Hepatotoxicity (acute) (%)": 0}
{"COMPOUND": "CC(=O)N[C@@H](CS)C(=O)O", "Hepatotoxicity (acute) (%)": 0}
{"COMPOUND": "COc1ccc(C(=O)Nc2ccccc2CCC2CCCCN2C)cc1 (centres undefined) [ENCAINIDE]", "Hepatotoxicity (acute) (%)": 0}
{"COMPOUND": "CC(=O)OCOC(=O)C1=C(COC(N)=O)SC2[C@H]([C@H](C)O)C(=O)N12 (some centres undefined)", "Hepatotoxicity (acute) (%)": 0}
{"COMPOUND": "C[C@H]1C[C@@H]2[C@H]([C@@H](O)C[C@@]3(C)[C@H]2CC[C@]3(O)C(=O)CO)[C@@]2(C)C=CC(=O)C=C12", "Hepatotoxicity (acute) (%)": 0}
{"COMPOUND": "O=C1NCCN1c1ncc([N+](=O)[O-])s1", "Hepatotoxicity (acute) (%)": 0}
{"COMPOUND": "COc1cc(C(=O)NS(=O)(=O)c2ccccc2C)ccc1Cc1cn(C)c2ccc(NC(=O)OC3CCCC3)cc12", "Hepatotoxicity (acute) (%)": 0.5}
{"COMPOUND": "CNCCNc1ccc2c3c(nn2CCNCCO)-c2c(O)ccc(O)c2C(=O)c13", "Hepatotoxicity (acute) (%)": 10.5}
{"COMPOUND": "NC[C@@H]1CC[C@@H](N)[C@@H](O[C@H]2[C@H](O)[C@@H](O[C@H]3O[C@H](CO)[C@@H](O)[C@H](N)[C@H]3O)[C@H](N)C[C@@H]2N)O1", "Hepatotoxicity (acute) (%)": 0}
{"COMPOUND": "CO/N=C(\\C(=O)N[C@@H]1C(=O)N2C(C(=O)OC(C)OC(C)=O)=C(COC(N)=O)CS[C@H]12)c1ccco1 (some centres undefined)", "Hepatotoxicity (acute) (%)": 0.2}
{"COMPOUND": "Cc1ncc(CNC(=O)N(CCCl)N=O)c(N)n1", "Hepatotoxicity (acute) (%)": 0}
{"COMPOUND": "CCN(CC)CCOc1ccc(C(=C(Cl)c2ccccc2)c2ccccc2)cc1", "Hepatotoxicity (acute) (%)": 0}
{"COMPOUND": "COc1cnc(NS(=O)(=O)c2ccc(N)cc2)nc1", "Hepatotoxicity (acute) (%)": 0}
{"COMPOUND": "Cc1cn([C@H]2CC[C@@H](CO)O2)c(=O)[nH]c1=O", "Hepatotoxicity (acute) (%)": 0}
{"COMPOUND": "CCN(CC)C(=O)/C(C#N)=C/c1cc(O)c(O)c([N+](=O)[O-])c1", "Hepatotoxicity (acute) (%)": 0}
{"COMPOUND": "O=C(O)c1cc(=O)c2c(OCC(O)COc3cccc4oc(C(=O)O)cc(=O)c34)cccc2o1", "Hepatotoxicity (acute) (%)": 0}
{"COMPOUND": "CC(N)C12CC3CC(CC(C3)C1)C2 (centres undefined)", "Hepatotoxicity (acute) (%)": 0}
{"COMPOUND": "CC(C(=O)O)c1cccc(Oc2ccccc2)c1 (centres undefined)", "Hepatotoxicity (acute) (%)": 0}
{"COMPOUND": "NC1CCN(c2nc3c(cc2F)c(=O)c(C(=O)O)cn3-c2ccc(F)cc2F)C1 (centres undefined)", "Hepatotoxicity (acute) (%)": 0}
{"COMPOUND": "Cc1c(-c2ccccc2)oc2c(C(=O)OCCN3CCCCC3)cccc2c1=O [FLAVOXATE]", "Hepatotoxicity (acute) (%)": 0}
{"COMPOUND": "CCN[C@@H](C)Cc1cccc(C(F)(F)F)c1", "Hepatotoxicity (acute) (%)": 0}
{"COMPOUND": "Cc1c(N(C)CS(=O)(=O)[O-])c(=O)n(-c2ccccc2)n1C.[Na+] [DIPYRONE SODIUM]", "Hepatotoxicity (acute) (%)": 0}
{"COMPOUND": "CNC1=Nc2ccc(Cl)cc2C(c2ccccc2)=[N+]([O-])C1 [CHLORDIAZEPOXIDE]", "Hepatotoxicity (acute) (%)": 0}
{"COMPOUND": "CC(C)[C@@H]1NC(=O)[C@H](CCCCN)NC(=O)[C@@H](Cc2c[nH]c3ccccc23)NC(=O)[C@H](Cc2ccc(O)cc2)NC(=O)[C@@H](NC(=O)[C@H](N)Cc2ccccc2)CSSC[C@@H](C(=O)N[C@@H](Cc2c[nH]c3ccccc23)C(N)=O)NC1=O [VAPREOTIDE] (H-[dF]CY[dW]KVCW-NH2; disulfide 2-7)", "Hepatotoxicity (acute) (%)": 0}
{"COMPOUND": "Cc1cn([C@H]2C=C[C@@H](CO)O2)c(=O)[nH]c1=O", "Hepatotoxicity (acute) (%)": 17.1}
{"COMPOUND": "N=C(N)c1ccc(OCCCCCOc2ccc(C(=N)N)cc2)cc1", "Hepatotoxicity (acute) (%)": 0}
{"COMPOUND": "C/C=C(/CC)C(=O)NC(N)=O", "Hepatotoxicity (acute) (%)": 0}
